Data credit: patent US8658646B2

Each item that follows carries a reported log10(IC50).
Target: recombinant human SYK360-635 (Homo sapiens, UniProt P43405)
Construct: made in house
Test: Determination of IC50 of Spleen Tyrosine Kinase (SYK) inhibition, 33P ATP filtration assay
Format: biochemical
Details: SYK aa 360-635 0.5 nM; ATP 20 μM, peptide 5 μM, 0.1% BSA; read-out: SYK_ENZYME_FILTRATION/v1, BSA
Quantity: log10(IC50) (log10 of the value in nM)

> print(dat)
                                   molecule                             target.entity     quantity  assay.value
1  CC(NC(=O)c1c[nH]c2ncc(-c3nn(C)c4cc(F)ccc34)nc12)c1cocn1 (centres unmarked)  recombinant human SYK360-635 (Homo sapiens, UniProt P43405)  log10(IC50)         1.29
2  CC(C)(C)NC(=O)c1c[nH]c2ncc(-c3ncn4cc(Cl)ccc34)nc12  recombinant human SYK360-635 (Homo sapiens, UniProt P43405)  log10(IC50)         0.95
3  CCC(C)(C)NC(=O)c1c[nH]c2ncc(-c3nn(C)c4cc(Cl)ccc34)nc12  recombinant human SYK360-635 (Homo sapiens, UniProt P43405)  log10(IC50)         0.94
4  Cn1nc(-c2cnc3[nH]cc(C(=O)NC(C)(C)CCCN)c3n2)c2ccc(F)cc21  recombinant human SYK360-635 (Homo sapiens, UniProt P43405)  log10(IC50)         1.72
5  Cn1nc(-c2cnc3[nH]cc(C(=O)NCC4CC4)c3n2)c2ccc(Cl)cc21  recombinant human SYK360-635 (Homo sapiens, UniProt P43405)  log10(IC50)         1.05
6  Cn1nc(-c2cnc3[nH]cc(C(=O)N[C@H]4CC[C@@H](CC#N)C4)c3n2)c2ccc(F)cc21 (relative stereo)  recombinant human SYK360-635 (Homo sapiens, UniProt P43405)  log10(IC50)         1.65
7  COC[C@H](C)NC(=O)c1c[nH]c2ncc(-c3nn(CCn4cccn4)c4cc(F)ccc34)nc12  recombinant human SYK360-635 (Homo sapiens, UniProt P43405)  log10(IC50)         2.51
